Experiment: Toxicity in mice, intraperitoneal
Conditions: mouse, in vivo, ip, Swiss Webster mice
measuredMetric: LD50

# LD50 lookup, item COC1CC2C=CCC(CC(OC)C3(CO3)C(OC)CC(OC)C(C)C(C(C)C(O)C(C)CCC(=O)C(C)C(OC)C(C)/C=C/N(C)C=O)OC(=O)/C=C/C(C)=C/C1O)O2 (stereo not shown) [Tolytoxin, 6-hydroxy-7-O-methylscytophycin B]
~1.5 mg/kg

* * *

Tested on: SKVLB (multi-drug resistant subline of SKOV3)
Test: cells
Assay type: cell-based, Human
Conditions: Homo sapiens; Table 7; SKVLB; 48 hours; read-out: IC50 SKVLB
pIC50: −log10 of the molar value.
So basically: pIC50 at 5 or higher? That is criterion met. Lower than 5? That is criterion not met.

compound	assignedLabel
COC1CC2C=CCC(CC(OC)C(CO)C(OC)CC(OC)C(C)C(C(C)C(O)C(C)CCC(=O)C(C)C(OC)C(C)/C=C/N(C)C=O)OC(=O)/C=C/C(C)=C/C1O)O2 (stereo not drawn) [6-Hydroxy-7-O-methylscytophycin E, 6-hydroxy-7-O-methylscytophycin E]	criterion met
COc1cccc2c1C(=O)c1c(O)c3c(c(O)c1C2=O)C[C@@](O)(C(=O)CO)C[C@@H]3O[C@H]1C[C@H](N)[C@H](O)[C@H](C)O1	criterion not met
COC1CC(OC)C2(CO2)C(OC)CC2CC=CC(CC(O)C(O)/C=C(C)/C=C/C(=O)OC(C(C)C(O)C(C)CCC(=O)C(C)C(OC)C(C)/C=C/N(C)C=O)C1C)O2 (stereo not drawn) [6-Hydroxyscytophycin B]	criterion met
C=C1C(C)C2C(Cc3ccccc3)NC(=O)C23OC(=O)C=CC(O)CCCC(C)CC=CC3C1O (stereo not drawn)	criterion not met

With those in mind, consider the next compound.
Evaluate COC1CC2CC=CC(CC(O)C/C=C(C)/C=C/C(=O)OC(C(C)C(O)C(C)CCC(=O)C(C)C(OC)C(C)/C=C/N(C)C=O)C(C)C(O)CC(OC)C1C)O2 (stereo not drawn) : pIC50 at minimum 5?
criterion met
